# Tested on: HT-1080
# Protocol Description: Modulatory profiling: Alamar Blue viability, lethal compound cotreated with death modulator (EC50, AUC)
# Format: cell-based
# Run Parameters: HT-1080, modulator Gd3+
Lab note: compare AUC HT.Gd3+ against -0.003. Equal or greater, write MET. Smaller, write NOT MET.

>>> group("COc1nn(-c2ccccc2)c(=O)c(Cl)c1Cl")
"MET"
>>> group("O=c1c(Cl)c(Cl)cnn1-c1ccc(Cl)c(C(F)(F)F)c1")
"MET"
>>> group("CC[C@]1(O)C[C@H]2CN(CCc3c([nH]c4ccccc34)[C@@](C(=O)OC)(c3cc4c(cc3OC)N(C=O)[C@H]3[C@@](O)(C(=O)OC)[C@H](OC(C)=O)[C@]5(CC)C=CCN6CC[C@]43[C@@H]65)C2)C1")
"MET"
>>> group("CC(C)(C)C1CCc2c(sc(NC(=O)CN3CCNCC3)c2C(N)=O)C1 (stereo not shown)")
"NOT MET"
>>> group("Cc1cccc(-n2ncc(Cl)c(Cl)c2=O)c1")
"NOT MET"
>>> group("CC(/C=C/C(=O)NO)=C\\[C@@H](C)C(=O)c1ccc(N(C)C)cc1")
"NOT MET"
>>> group("CC[C@]1(O)C[C@@H]2CN(CCc3c([nH]c4ccccc34)[C@@](C(=O)OC)(c3cc4c(cc3OC)N(C)[C@H]3[C@@](O)(C(=O)OC)[C@H](OC(C)=O)[C@]5(CC)C=CCN6CC[C@]43[C@@H]65)C2)C1")
"MET"

###

# Tested on: HT-1080
# Protocol Description: Modulatory profiling: Alamar Blue viability, lethal compound cotreated with death modulator (EC50, AUC)
# Format: cell-based
# Set-up: unit not given beside the values
# Run Parameters: HT-1080, modulator ATA
Rule: AUC HT.ATA below 0.05 gives y, anything at or above gives n.

>>> group("OCCNCC(O)Cn1c2ccc(Br)cc2c2cc(Br)ccc21 (stereo not drawn)")
"y"
>>> group("Cc1cccc(Cn2ncc(Cl)c(Cl)c2=O)c1")
"n"
>>> group("CCC(C(NNC(=O)c1ccc(C(F)(F)F)cc1)c1ccc(C(F)(F)F)cc1)[N+](=O)O (stereo not drawn)")
"n"
>>> group("CC(C)C1CC(CCNCc2ccc3c(c2)OCO3)(c2ccccc2)CCO1 (stereo not drawn)")
"y"
>>> group("Nc1ccccc1NC(=O)c1ccc(CNC(=O)OCc2cccnc2)cc1")
"y"
>>> group("CC1=CC(C)(C)Nc2ccc(OC(=O)c3cccnc3)cc21")
"n"
>>> group("COc1cccc2c1C(=O)c1c(O)c3c(c(O)c1C2=O)C[C@@](O)(C(=O)CO)C[C@@H]3O[C@H]1C[C@H](N)[C@H](O)[C@H](C)O1")
"y"
>>> group("COc1c2c(cc3c1C(CC(=O)/C=C/c1ccccc1)[N+](C)(C)CC3)OCO2 (stereo not drawn)")
"n"
>>> group("COc1ccccc1/C=C/C1(C(=O)NC2CCCC2)CC(=O)N1c1ccc(F)cc1 (stereo not drawn)")
"y"
>>> group("O=C1C(Cl)=C(N2CCOCC2)C(=O)C(Cl)=C1N1CCOCC1")
"y"
>>> group("O=S(=O)(c1ccc2c(c1)C(=NO)c1cc(S(=O)(=O)N3CCCCC3)ccc1-2)N1CCCCC1")
"y"
>>> group("CC[C@]1(O)C[C@@H]2CN(CCc3c([nH]c4ccccc34)[C@@](C(=O)OC)(c3cc4c(cc3OC)N(C)[C@H]3[C@@](O)(C(=O)OC)[C@H](OC(C)=O)[C@]5(CC)C=CCN6CC[C@]43[C@@H]65)C2)C1")
"n"
>>> group("O=C(/C=C/c1cccc(NC(=O)c2cccs2)c1)c1ccccc1")
"y"
>>> group("COC(C)(C)C#CC(=O)c1cccc2ccccc12")
"n"
>>> group("CC(C)C[C@H](NC(=O)[C@H](Cc1ccccc1)NC(=O)c1cnccn1)B(O)O")
"n"
>>> group("CC1CC(C)(C)Nc2ccc(OC(=O)c3ccco3)cc21 (stereo not drawn)")
"y"
>>> group("CN(C)CC(O)Cn1c2ccc(Cl)cc2c2cc(Cl)ccc21 (stereo not drawn)")
"y"
